These data points were gathered from a melting point compilation (Tetko et al.).

measured_property: melting point

# compound, reported
measured = [
    ("Nc1nc(-c2ccc(C3CCCCC3)cc2)cs1", "227 to 229 °C"),
]

Param item = O=C(O)COc1ccc(Oc2ccccn2)cc1 ; retrieve measured melting point.
154 to 156 °C

Param item = COc1cc(CC#N)ccc1OCC(F)(F)F ; retrieve measured melting point.
62 to 64 °C

---

# melting point per record follows

# item_smiles, reported
rows = [
    ("Cc1ccc(OCc2nc(C(=O)O)cs2)cc1", "198 to 200 °C"),
    ("COc1ccccc1NC(=O)c1ccccc1NC(=O)CCC(=O)O", "127 to 129 °C"),
    ("Brc1ccn2nccc2n1", "131 to 133 °C"),
    ("CCOC(=O)c1sc2nc(CN3CCCCC3)nc(Cl)c2c1C", "105 to 107 °C"),
    ("NC(=O)CCC1CCNCC1", "64 to 66 °C"),
]

Param item = Cc1ccc(C(=O)N2CCSCC2)cc1O ; retrieve measured melting point.
159 to 161 °C

Param item = Cc1ccc(S(=O)(=O)Nc2ccc(N)cc2)cc1 ; retrieve measured melting point.
183 to 185 °C

Param item = COC(=O)COc1ccc(N)c2ccccc12 ; retrieve measured melting point.
83 to 85 °C

Param item = CC1(C)CCc2[nH]c(=O)c(C(=O)O)cc2C1 ; retrieve measured melting point.
242 to 244 °C

Param item = NS(=O)(=O)c1ccc(CN=C=S)cc1 ; retrieve measured melting point.
159 to 161 °C

Param item = NC(=S)CN1CCOCC1 ; retrieve measured melting point.
178 to 180 °C

Param item = COc1cc2ncc(C(=O)O)c(O)c2cc1OC ; retrieve measured melting point.
293 to 295 °C

Param item = COC(=O)c1cn(CC(=O)O)nn1 ; retrieve measured melting point.
176 to 178 °C

---

# melting point per record follows

# compound, melting point
rows = [
    ("Cc1ccc(C#N)c(Sc2ccccc2)c1", "59 to 61 °C"),
]

Param item = NC(=S)Nc1ccc2c(c1)CCC2 ; retrieve measured melting point.
179 to 181 °C

Param item = O=C1C(Br)CCCN1c1ccc(OC(F)F)cc1 (configuration not stated) ; retrieve measured melting point.
72 to 74 °C

Param item = Nc1nc(C(F)(F)F)c[nH]1 ; retrieve measured melting point.
121 to 123 °C

Param item = Nc1cc(Br)ccc1S(N)(=O)=O ; retrieve measured melting point.
142 to 144 °C

Param item = ON=Cc1ccc(Oc2ncccn2)cc1 ; retrieve measured melting point.
177 to 179 °C

Param item = COC(=O)c1cc(C)cc([N+](=O)[O-])c1 ; retrieve measured melting point.
80 to 82 °C

---

# melting point per record follows

Completed entries (count: 10):
# item_smiles, reported
measured = [
    ("Cc1cc(N)n(C)c(=O)c1", "192 to 194 °C"),
    ("CCS(=O)(=O)NCCS(=O)(=O)Cl", "68 to 70 °C"),
    ("O=C(O)Cc1ccc(OCc2ccccn2)cc1", "153 to 155 °C"),
    ("COC(=O)c1c(C)n(C2CC2)c2ccc(O)cc12", "193 to 195 °C"),
    ("O=C(O)c1ccc(Oc2cccnc2)cc1", "204 to 206 °C"),
    ("O=C(O)CCn1nnc2ccccc2c1=O", "195 to 197 °C"),
    ("Cc1ccc(C(C)C)c(OCC(=O)O)c1", "126 to 128 °C"),
    ("N#Cc1ccc(CBr)c(OC(F)F)c1", "80 to 82 °C"),
    ("O=C1CCc2cc(OCCO)ccc2N1", "180 to 182 °C"),
    ("COc1ccc(-c2ncc(C(=O)O)s2)cc1", "239 to 241 °C"),
]

Param item = O=C(O)CCCOc1ccc(S(=O)(=O)Cl)cc1Cl ; retrieve measured melting point.
134 to 136 °C

Param item = COc1nc(O)c2ccccc2n1 ; retrieve measured melting point.
228 to 230 °C

Param item = Cc1ccc(CNC(=O)c2nnc(CCl)s2)cc1 ; retrieve measured melting point.
153 to 155 °C
